# TEST_SUMMARY: AUC (0 to infinity) in Sprague-Dawley rat at 10 mg/kg, po
# Format: ADME, organism-based
# Design: time infinity, dose 10 mg/kg, route oral
# ASSAY_SETUP: plasma
VALUE_KIND: AUC(0-inf) (ng·h/mL)
Answers are plain numbers, in ng·h/mL.

Query: In one line, give reported AUC(0-inf) of the entry O=c1cc(C(F)(F)F)c2cc(N(CC(F)(F)F)CC(F)(F)F)ccc2[nH]1 .
Response: 3150

----------
# MEASURED_TARGET: Estrogen receptor (Homo sapiens, UniProt P03372)
# Sequence (P03372 whole entry): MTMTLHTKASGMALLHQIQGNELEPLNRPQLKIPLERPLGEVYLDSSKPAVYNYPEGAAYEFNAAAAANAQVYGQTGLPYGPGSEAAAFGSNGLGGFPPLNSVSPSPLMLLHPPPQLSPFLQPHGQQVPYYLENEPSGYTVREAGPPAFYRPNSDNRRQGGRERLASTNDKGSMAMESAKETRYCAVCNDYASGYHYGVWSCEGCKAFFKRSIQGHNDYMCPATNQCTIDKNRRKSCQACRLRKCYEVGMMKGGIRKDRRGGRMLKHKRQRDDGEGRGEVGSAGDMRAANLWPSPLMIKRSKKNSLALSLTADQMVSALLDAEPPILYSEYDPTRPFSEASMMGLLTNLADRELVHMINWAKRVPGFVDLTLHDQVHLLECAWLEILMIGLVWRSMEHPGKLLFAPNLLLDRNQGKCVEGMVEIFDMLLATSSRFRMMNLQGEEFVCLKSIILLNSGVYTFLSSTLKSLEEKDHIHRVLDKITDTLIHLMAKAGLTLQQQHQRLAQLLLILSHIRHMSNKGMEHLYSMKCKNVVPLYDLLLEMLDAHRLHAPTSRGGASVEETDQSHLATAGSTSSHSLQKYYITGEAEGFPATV
VALUE_KIND: Ki

Query: In one line, give reported Ki of the entry C[C@@H]1CC[C@H]([C@@H](O)C(F)(F)F)N1c1ccc2[nH]c(=O)cc(C(F)(F)F)c2c1 [LGD-2941] .
Response: > 10 µM
